System: M. mycetomatis genome strain MM55
Assay: CLSI M38-A2 based in vitro susceptibility screening (XTT or resazurin), growth at fixed concentration
Assay type: cell-based, Madurella mycetomatis
Conditions: Madurella mycetomatis, 25 uM, replicate C, MM55; read-out: Percentage survival at 25um, 25 uM C
We'd kindly ask you to apply these activity at 25 µM classes: range 1 = under 60%, range 2 = from 60% up to 80%, range 3 = 80% and over

[
  {
    "compound": "CC(C)(C)c1ccc(C(Cn2cccc(C(F)(F)F)c2=O)NC2Cc3ccccc3C2)cc1 (stereo not drawn) [MMV1634393]",
    "assigned_category": "range 2"
  },
  {
    "compound": "CN(C)CC(=O)Nc1ccc2[nH]c(=O)c3ccccc3c2c1 [MMV1580480]",
    "assigned_category": "range 2"
  },
  {
    "compound": "CC[C@H](NC(=O)[C@H](C)NC)C(=O)N1C[C@@H](O)C[C@H]1Cc1c(-c2[nH]c3cc(F)ccc3c2C[C@@H]2C[C@H](O)CN2C(=O)[C@H](CC)NC(=O)[C@H](C)NC)[nH]c2cc(F)ccc12 [MMV1557856]",
    "assigned_category": "range 2"
  },
  {
    "compound": "N[C@H](CCC(=O)N[C@@H](Cc1c[nH]c2ccccc12)C(=O)O)C(=O)O [MMV1581033]",
    "assigned_category": "range 3"
  },
  {
    "compound": "COc1ccc(CNC(=O)C2CCN([C@H](C)c3cccc4ccccc34)CC2)cc1 [MMV1634397]",
    "assigned_category": "range 1"
  },
  {
    "compound": "Nc1nc2c(ncn2/C=C2/CC2(CO)CO)c(=O)[nH]1 [MMV1782210]",
    "assigned_category": "range 3"
  },
  {
    "compound": "C[C@H]1COc2c(N3CCN(C)CC3)c(F)cc3c(=O)c(C(=O)O)cn1c23 [MMV687798]",
    "assigned_category": "range 3"
  },
  {
    "compound": "COc1ccc(C[C@@H](C)[C@@H](C)Cc2ccc(OC)c(OC)c2)cc1OC [MMV1581036]",
    "assigned_category": "range 2"
  },
  {
    "compound": "C[C@@H](NC(=O)c1cccc(-c2c[nH]c(-c3cc4ccccc4cn3)n2)c1)c1ccc(F)cc1 [MMV1782211]",
    "assigned_category": "range 2"
  },
  {
    "compound": "O=C(CSc1nnc(Br)n1-c1ccc(C2CC2)c2ccccc12)Nc1ccc(C(=O)O)cc1Cl [MMV1782213]",
    "assigned_category": "range 2"
  },
  {
    "compound": "c1cc(CN2CCCNCCNCCCNCC2)ccc1CN1CCCNCCNCCCNCC1 [MMV1580502]",
    "assigned_category": "range 3"
  },
  {
    "compound": "CN(C(=O)C1(c2ccc(Cl)cc2)CCC1)c1ccccc1 [MMV1581030]",
    "assigned_category": "range 1"
  }
]
